molecular target: S. aureus alpha-toxin (Staphylococcus aureus, UniProt P09616)
Measured Property: Kd (nM)

Binder: DF1.1 variant HCDR3-G8R (antibody, V domains shown) VH: QVQLVQSGAEVKKPGSSVKVSCKTSGGTFNNVAINWVRQAPGQGLEWMGGIIPGLDTPNYAQKFQGRVTITADKSTTSTYLELSSLRSDDTAVYYCAREMEVSRRWRPTEAFEIWGQGTMVTVSS VL: ETTLTQSPGTLSLSPGERATLSCRASQTISNNFVAWYQQKPGQAPRLLIYGASTRATGIPDRFSGSGSGTDFTLTISSLEPEDFAVYYCQQYGSSPYTFGQGTKVDIK
Inequality Sign: =
Number: 0.4

Binder: DF1.1 variant LCDR3-P7A (antibody, V domains shown) VH: QVQLVQSGAEVKKPGSSVKVSCKTSGGTFNNVAINWVRQAPGQGLEWMGGIIPGLDTPNYAQKFQGRVTITADKSTTSTYLELSSLRSDDTAVYYCAREMEVSGRWRPTEAFEIWGQGTMVTVSS VL: ETTLTQSPGTLSLSPGERATLSCRASQTISNNFVAWYQQKPGQAPRLLIYGASTRATGIPDRFSGSGSGTDFTLTISSLEPEDFAVYYCQQYGSSAYTFGQGTKVDIK
Inequality Sign: <
Number: 0.14

Binder: DF1.1 variant HCDR3-R11A (antibody, V domains shown) VH: QVQLVQSGAEVKKPGSSVKVSCKTSGGTFNNVAINWVRQAPGQGLEWMGGIIPGLDTPNYAQKFQGRVTITADKSTTSTYLELSSLRSDDTAVYYCAREMEVSGRWAPTEAFEIWGQGTMVTVSS VL: ETTLTQSPGTLSLSPGERATLSCRASQTISNNFVAWYQQKPGQAPRLLIYGASTRATGIPDRFSGSGSGTDFTLTISSLEPEDFAVYYCQQYGSSPYTFGQGTKVDIK
Inequality Sign: =
Number: 0.8

Binder: DF1.1 variant HCDR3-E5A (antibody, V domains shown) VH: QVQLVQSGAEVKKPGSSVKVSCKTSGGTFNNVAINWVRQAPGQGLEWMGGIIPGLDTPNYAQKFQGRVTITADKSTTSTYLELSSLRSDDTAVYYCAREMAVSGRWRPTEAFEIWGQGTMVTVSS VL: ETTLTQSPGTLSLSPGERATLSCRASQTISNNFVAWYQQKPGQAPRLLIYGASTRATGIPDRFSGSGSGTDFTLTISSLEPEDFAVYYCQQYGSSPYTFGQGTKVDIK
Inequality Sign: =
Number: 0.4

Binder: DF1.1 variant LCDR3-T9R (antibody, V domains shown) VH: QVQLVQSGAEVKKPGSSVKVSCKTSGGTFNNVAINWVRQAPGQGLEWMGGIIPGLDTPNYAQKFQGRVTITADKSTTSTYLELSSLRSDDTAVYYCAREMEVSGRWRPTEAFEIWGQGTMVTVSS VL: ETTLTQSPGTLSLSPGERATLSCRASQTISNNFVAWYQQKPGQAPRLLIYGASTRATGIPDRFSGSGSGTDFTLTISSLEPEDFAVYYCQQYGSSPYRFGQGTKVDIK
Inequality Sign: <
Number: 0.14

All values here come from patent US20130164308A1.
